The measurements presented in this section are drawn from patent US5183899A.

# inhibition at 1 µM listing for each entry below
# target_desc: angiotensin II receptor (Bos taurus, UniProt P25104)
# Construct: An A II receptor membrane fraction was prepared from bovine adrenal cortex; from tissue; host or cells: bovine adrenal cortex, receptor membrane fraction
# Sequence (P25104 whole entry): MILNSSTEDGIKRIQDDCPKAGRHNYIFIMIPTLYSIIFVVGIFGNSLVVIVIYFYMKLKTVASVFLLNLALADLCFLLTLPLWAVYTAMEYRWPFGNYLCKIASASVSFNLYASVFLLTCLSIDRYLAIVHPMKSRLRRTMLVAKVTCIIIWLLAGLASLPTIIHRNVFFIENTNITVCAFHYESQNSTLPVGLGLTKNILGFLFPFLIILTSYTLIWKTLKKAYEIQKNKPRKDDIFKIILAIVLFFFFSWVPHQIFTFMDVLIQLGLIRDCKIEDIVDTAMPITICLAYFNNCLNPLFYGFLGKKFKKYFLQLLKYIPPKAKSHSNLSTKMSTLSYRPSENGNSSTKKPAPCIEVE
# test: Inhibition of binding of angiotensin II to angiotensin receptors (125I-angiotensin II binding, receptor membrane fraction from bovine adrenal cortex)
# assay_context: 1 × 10^-6 (M), 125I-A II, room temperature, 1 hour
value_type: inhibition at 1 µM (%)

molecule="CCCCc1cc(C(=O)N2CCC(C(c3ccccc3)c3ccccc3)CC2)nn1Cc1ccc(-c2ccccc2-c2nn[nH]n2)cc1 [compound 32]" value_type="inhibition at 1 µM" reported=32
molecule="CCCCc1cc(C(=O)OC(C)C)nn1Cc1ccc(-c2ccccc2-c2nn[nH]n2)cc1 [compound 17]" value_type="inhibition at 1 µM" reported=91
molecule="CCCCc1cc(C(=O)OCC(F)(F)F)nn1Cc1ccc(-c2ccccc2-c2nn[nH]n2)cc1 [compound 20]" value_type="inhibition at 1 µM" reported=66
molecule="CCCCc1cc(C(=O)NOCc2ccccc2)nn1Cc1ccc(-c2ccccc2-c2nn[nH]n2)cc1 [compound 9]" value_type="inhibition at 1 µM" reported=73
molecule="CCCCc1cc(C(=O)NC2Cc3ccccc3C2)nn1Cc1ccc(-c2ccccc2-c2nn[nH]n2)cc1 [compound 8]" value_type="inhibition at 1 µM" reported=86
molecule="CCCCc1cc(C(=O)NCCOC)nn1Cc1ccc(-c2ccccc2-c2nn[nH]n2)cc1 [compound 15]" value_type="inhibition at 1 µM" reported=88
molecule="CCCc1cc(C(=O)OCC)nn1Cc1ccc(-c2ccccc2-c2nn[nH]n2)cc1 [compound 19]" value_type="inhibition at 1 µM" reported=62
molecule="CCCCc1cc(C(=O)NCc2ccccc2)nn1Cc1ccc(-c2ccccc2-c2nn[nH]n2)cc1 [compound 6]" value_type="inhibition at 1 µM" reported=83
molecule="CCCCNC(=O)c1cc(CCCC)n(Cc2ccc(-c3ccccc3-c3nn[nH]n3)cc2)n1 [compound 2]" value_type="inhibition at 1 µM" reported=80
molecule="CCCCc1cc(C(=O)NCCC)nn1Cc1ccc(-c2ccccc2-c2nn[nH]n2)cc1 [compound 13]" value_type="inhibition at 1 µM" reported=85
molecule="CCCCc1cc(C(=O)OCC)nn1Cc1ccc(-c2ccccc2-c2nn[nH]n2)cc1 [compound 1]" value_type="inhibition at 1 µM" reported=75
molecule="CCCCc1cc(C(=O)Nc2ccccc2)nn1Cc1ccc(-c2ccccc2-c2nn[nH]n2)cc1 [compound 7]" value_type="inhibition at 1 µM" reported=91
molecule="CCCCc1cc(C(=O)OC)nn1Cc1ccc(-c2ccccc2-c2nn[nH]n2)cc1 [compound 22]" value_type="inhibition at 1 µM" reported=61
molecule="CCCCc1cc(C(=O)NCC)nn1Cc1ccc(-c2ccccc2-c2nn[nH]n2)cc1 [compound 12]" value_type="inhibition at 1 µM" reported=85
